# TARGET: SFRP-1 (Homo sapiens, UniProt Q8N474)
# Sequence (Q8N474 32-314): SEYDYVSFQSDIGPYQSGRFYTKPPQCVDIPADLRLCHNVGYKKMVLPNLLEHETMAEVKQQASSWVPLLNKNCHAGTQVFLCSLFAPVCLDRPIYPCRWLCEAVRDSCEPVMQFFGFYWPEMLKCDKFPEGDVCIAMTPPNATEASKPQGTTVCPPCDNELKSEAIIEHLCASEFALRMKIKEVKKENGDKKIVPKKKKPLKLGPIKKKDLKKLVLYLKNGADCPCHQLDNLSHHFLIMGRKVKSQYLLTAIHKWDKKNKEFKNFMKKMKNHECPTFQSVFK
# PROTOCOL: Cell-based assay for in vitro measurement of SFRP-1/SARP2 antagonist activity (U2OS cells co-transfected with 16x TCF-tk-Luciferase reporter, Wnt and hSFRP-1)
# ASSAY_CONTEXT: U2OS, read-out: Fold Induction without SFRP-1, Conc 15 μM; without SFRP-1, single dose
QUANTITY_MEASURED: fold induction at 15 µM
# print the numeric value only

Answered cases to consult:
>>> value_measured("COc1cccc(CCNS(=O)(=O)c2cccc(S(=O)(=O)c3ccccc3)c2)c1 [Example 62]")
1.1
>>> value_measured("Cc1ccc(S(=O)(=O)c2ccc(F)cc2)cc1S(=O)(=O)NCCc1ccncc1 [Example 165]")
1
>>> value_measured("COc1ccc(S(=O)(=O)c2ccccc2)cc1S(=O)(=O)NC1Cc2ccccc2C1 [Example 269]")
1.2
>>> value_measured("CCc1ccc(S(=O)(=O)c2ccc(F)cc2)cc1S(=O)(=O)NCC1CCOCC1 [Example 384]")
0.8
>>> value_measured("Cc1ccc(S(=O)(=O)c2ccccc2)cc1S(=O)(=O)NCCCN1CCCC1 [Example 220]")
1.8
>>> value_measured("CCc1ccc(S(=O)(=O)c2ccccc2)cc1S(=O)(=O)NCCc1ccccc1F [Example 147]")
1
>>> value_measured("CC[C@H](C)C(CO)Nc1ccc(S(=O)(=O)c2ccc(C(C)C)c(S(=O)(=O)NCCn3ccnc3)c2)cc1 (stereo partly shown) [Example 453]")
1.1
>>> value_measured("Cc1ccc(S(=O)(=O)c2ccccc2)cc1S(=O)(=O)NC1CCN(S(=O)(=O)c2cccs2)CC1 [Example 482]")
1.1

Problem: Quick check: fold induction at 15 µM of Cc1ccc(S(=O)(=O)c2ccccc2)cc1S(=O)(=O)NC1CCN(S(=O)(=O)c2cn(C)cn2)CC1 [Example 481] ?
Result: 1

Problem: Recorded fold induction at 15 µM of O=S(=O)(NCCc1ccccn1)c1cc(S(=O)(=O)c2ccccc2)ccc1Cl [Example 337] , please.
Result: 1.1

Problem: Given the entry CCc1ccc(S(=O)(=O)c2ccccc2)cc1S(=O)(=O)N1CCN(CCCN2CCOCC2)CC1 [Example 289] , report its measured fold induction at 15 µM.
Result: 1.1

Problem: GET /values?readout=fold induction at 15 µM&item= CC(C)c1ccc(S(=O)(=O)c2cccc(Cl)c2)cc1S(=O)(=O)NCCc1ccccn1 [Example 455]
Result: 1

Problem: State the recorded fold induction at 15 µM for this entry: CCOc1cc(CCNS(=O)(=O)c2cc(S(=O)(=O)c3ccccc3)ccc2CC)ccc1OC [Example 148]
Result: 1.1

Problem: Form field: reported fold induction at 15 µM of Cc1ccc(S(=O)(=O)c2cccc3ccccc23)cc1S(=O)(=O)NCCc1ccccn1 [Example 410]
Result: 1.3

Problem: What value of measured fold induction at 15 µM is listed for CCc1ccc(S(=O)(=O)c2ccccc2)cc1S(=O)(=O)N[C@H]1C[C@@H]1c1ccccc1 [Example 267] ?
Result: 1.2

Problem: Endpoint output: fold induction at 15 µM of COCC(=O)N1CCC(NS(=O)(=O)c2cc(S(=O)(=O)c3ccccc3)ccc2C)CC1 [Example 469] . Value?
Result: 1.1

* * *

# TARGET: SFRP-1 (Homo sapiens, UniProt Q8N474)
# PROTOCOL: Cell-based assay for in vitro measurement of SFRP-1/SARP2 antagonist activity (U2OS cells co-transfected with 16x TCF-tk-Luciferase reporter, Wnt and hSFRP-1)
# ASSAY_CONTEXT: U2OS, read-out: Fold Induction without SFRP-1, Conc 15 μM; single dose; luciferase reporter; cells without SFRP-1 (specificity control)
The entries below come with measured fold induction at 15 µM values attached.
Reply with just the number.

The examples below pair each entry with its known result.
>>> value_measured("CC(C)(C)C(=O)N1CCC(NS(=O)(=O)c2cc(S(=O)(=O)c3ccccc3)ccc2Cl)CC1 [Example 648]")
1.1
>>> value_measured("CC(C)c1cc(C(C)C)c(S(=O)(=O)c2ccccc2)cc1S(=O)(=O)NCCc1ccncc1 [Example 617]")
1.2
>>> value_measured("CC(C)c1cc(C(C)C)c(S(=O)(=O)c2ccccc2)cc1S(=O)(=O)NCCc1ccccn1 [Example 614]")
1
>>> value_measured("N#CN1CCC(NS(=O)(=O)c2cc(S(=O)(=O)c3ccccc3)ccc2Cl)CC1 [Example 651]")
0.9
>>> value_measured("Cc1cc(N(C)C)ccc1S(=O)(=O)c1ccc(C(C)C)c(S(=O)(=O)NCCc2ccccn2)c1 [Example 600]")
1.1
>>> value_measured("CC(C)c1ccc(S(=O)(=O)c2ccc(N3CCN(C)CC3)cc2)cc1S(=O)(=O)NC1CCOCC1 [Example 547]")
1.3
>>> value_measured("CC(C)c1ccc(S(=O)(=O)c2ccc(F)cc2)cc1S(=O)(=O)NC1CCN(C(=O)N(C)C)CC1 [Example 573]")
1.1
>>> value_measured("Cc1c(Cl)cccc1S(=O)(=O)c1ccc(C(C)C)c(S(=O)(=O)NCCc2ccccn2)c1 [Example 514]")
1

Turning now to a further molecule:
Problem: Item CC(C)c1ccc(S(=O)(=O)c2ccc(NCCC#N)cc2)cc1S(=O)(=O)NCCC1CCOCC1 [Example 537] has what recorded fold induction at 15 µM?
Result: 1.1

* * *

# TARGET: SFRP-1 (Homo sapiens, UniProt Q8N474)
# PROTOCOL: Cell-based assay for in vitro measurement of SFRP-1/SARP2 antagonist activity (U2OS cells co-transfected with 16x TCF-tk-Luciferase reporter, Wnt and hSFRP-1)
# ASSAY_CONTEXT: U2OS, read-out: Fold Induction with SFRP-1, Conc 15 μM; with SFRP-1; fold induction over SFRP-1 control, single dose
QUANTITY_MEASURED: fold induction at 15 µM
Please reply with the number alone, leaving off any unit.

>>> value_measured("Cc1ccc(S(=O)(=O)c2ccccc2)cc1S(=O)(=O)NCCc1c[nH]c2ccccc12 [Example 294]")
2.3
>>> value_measured("CCN(CC)CCNS(=O)(=O)c1cc(S(=O)(=O)c2ccc(F)cc2)ccc1C [Example 171]")
2.2
>>> value_measured("CCN(CC)CCCNS(=O)(=O)c1cc(S(=O)(=O)c2ccccc2)ccc1C [Example 218]")
2.2

Moving on to another compound below.
Problem: What value of fold induction at 15 µM has been reported for the following compound? Cc1cc(C)c(S(=O)(=O)c2ccc(F)cc2)cc1S(=O)(=O)NCCCn1ccnc1 [Example 330]
Result: 3.2

* * *

# TARGET: UniProtKB Q8N474
# PROTOCOL: Cell-based assay for in vitro measurement of SFRP-1/SARP2 antagonist activity (U2OS cells co-transfected with 16x TCF-tk-Luciferase reporter, Wnt and hSFRP-1);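 also: U2OS cells co-transfected with a TCF-tk luciferase reporter, a Wnt vector, hSFRP-1 or empty vector and CMV-βgal, luciferase luminescence read in cell lysates alongside βgal activity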
# ASSAY_CONTEXT: U2OS, read-out: Fold Induction without SFRP-1, Conc 15 μM; without SFRP-1, single dose
With a cut-off of 1, any fold induction at 15 µM strictly below it is called Fulfilled; any fold induction at 15 µM meeting it or above is called Not fulfilled.

>>> cat("CNc1ccc(S(=O)(=O)c2ccc(C(C)C)c(S(=O)(=O)NCCc3ccccn3)c2)cc1 [Example 357]")
"Not fulfilled"

Problem: Find out if reported fold induction at 15 µM for Cc1ccc(S(=O)(=O)c2ccccc2)cc1S(=O)(=O)NC1CCN(C(=O)C2CC2)CC1 [Example 475] is less than 1
Result: Not fulfilled

Problem: For the compound Cc1ccc(S(=O)(=O)c2ccccc2)cc1S(=O)(=O)NC1CCCCC1 [Example 400] , is fold induction at 15 µM under 1?
Result: Not fulfilled

Problem: Given CCOC(=O)N1CCC(NS(=O)(=O)c2cc(S(=O)(=O)c3ccccc3)ccc2C)CC1 [Example 425] , is recorded fold induction at 15 µM strictly lower than 1?
Result: Not fulfilled

Problem: I'd appreciate it if you could check whether COc1ccc(S(=O)(=O)c2ccc(C)c(S(=O)(=O)NCCCn3ccnc3)c2)cc1 [Example 315] has fold induction at 15 µM smaller than 1.
Result: Not fulfilled

Problem: Here's an entry: Cc1ccc(S(=O)(=O)c2ccc(F)cc2)cc1S(=O)(=O)NCCCN1CCN(C)CC1 [Example 179] . Is its fold induction at 15 µM below 1?
Result: Not fulfilled

Problem: Quick check: fold induction at 15 µM of Cc1ccc(S(=O)(=O)c2ccccc2Cl)cc1S(=O)(=O)NCCCn1ccnc1 [Example 377] under 1?
Result: Not fulfilled

Problem: Please let me know if Cc1ccc(S(=O)(=O)c2ccccc2)cc1S(=O)(=O)NC1CCc2ccccc21 (centres unmarked) [Example 415] shows fold induction at 15 µM below 1.
Result: Not fulfilled

Problem: Strictly below 1: is that where fold induction at 15 µM of O=S(=O)(NC1CCOCC1)c1cc(S(=O)(=O)c2ccccc2)ccc1Cl [Example 361] sits?
Result: Fulfilled

Problem: Say whether its fold induction at 15 µM is strictly beneath 1. Entry: Cc1cc(C)cc(S(=O)(=O)c2ccc(C(C)C)c(S(=O)(=O)NCCc3ccccn3)c2)c1 [Example 454]
Result: Not fulfilled

Problem: Hi there! Is fold induction at 15 µM for CC(C)c1ccc(S(=O)(=O)c2ccc(F)cc2)cc1S(=O)(=O)NCCn1ccnc1 [Example 318] below 1, do you know?
Result: Not fulfilled

Problem: Could you please tell me whether fold induction at 15 µM recorded for CCc1ccc(S(=O)(=O)c2ccccc2)cc1S(=O)(=O)N1CCN(CCN2CCOCC2)CC1 [Example 287] is less than 1?
Result: Not fulfilled

Problem: Here's an entry: CC(=O)NCCNS(=O)(=O)c1cc(S(=O)(=O)c2ccc(F)cc2)ccc1C [Example 168] . Is its fold induction at 15 µM below 1?
Result: Fulfilled

Problem: I'd appreciate it if you could check whether Cc1ccc(S(=O)(=O)c2ccc(F)cc2)cc1S(=O)(=O)NCCC1CCOCC1 [Example 309] has fold induction at 15 µM smaller than 1.
Result: Fulfilled

Problem: Is fold induction at 15 µM of Cc1ccc(S(=O)(=O)c2ccoc2C)cc1S(=O)(=O)NCCCn1ccnc1 [Example 363] strictly below 1?
Result: Not fulfilled

Problem: Criterion: fold induction at 15 µM strictly below 1. Is it met by CCc1ccc(S(=O)(=O)c2ccccc2)cc1S(=O)(=O)N1CCN(CC(=O)N2CCCC2)CC1 [Example 285] ?
Result: Not fulfilled

Problem: For the compound Cc1ccc(S(=O)(=O)c2ccc(C(C)(O)c3ccccc3)cc2)cc1S(=O)(=O)NCCc1ccccn1 (centres unmarked) [Example 407] , is fold induction at 15 µM under 1?
Result: Fulfilled

Problem: Find out if reported fold induction at 15 µM for Cc1cc(S(=O)(=O)c2ccccc2)cc(S(=O)(=O)NCCC2CCOCC2)c1C [Example 351] is less than 1
Result: Not fulfilled

Problem: Is 1 strictly greater than the compound's reported fold induction at 15 µM? compound: Cc1ccc(S(=O)(=O)c2ccccc2)cc1S(=O)(=O)NCCc1ccccn1 [Example 205]
Result: Fulfilled

Problem: Strictly below 1: is that where fold induction at 15 µM of Cc1ccc(S(=O)(=O)c2ccc(F)cc2)cc1S(=O)(=O)NCCc1ccccn1 [Example 162] sits?
Result: Fulfilled

Problem: Determine if CCOc1ccc(CCNS(=O)(=O)c2cc(S(=O)(=O)c3ccccc3)ccc2OC)cc1OC [Example 158] shows fold induction at 15 µM strictly lower than 1.
Result: Not fulfilled

Problem: Hi there! Is fold induction at 15 µM for CCc1ccc(S(=O)(=O)c2ccccc2)cc1S(=O)(=O)NCCc1cccc(F)c1 [Example 146] below 1, do you know?
Result: Not fulfilled
